# Test system: CYP1A1
# Test: EROD assay in HepG2 cells (cleavage of 7-ethoxyresorufin to resorufin)
# Format: cell-based, human
# Reported conditions: human, probe 7-ethoxyresorufin (8 μM)
Assay endpoint: EC50 at 24 h (nM)

Known results for molecules:
# Molecule, EC50 at 24 h / nM
data = [
    ("COc1ccc2c(=O)c3c(ccc4ccccc43)oc2c1 [Compound M]", 3000),
    ("O=c1c2cccc(O)c2oc2ccc3ccccc3c12 [Compound P]", 2000),
    ("O=c1c2ccc(O)cc2oc2ccc3ccccc3c12 [Compound N]", 1500),
    ("COc1ccc2oc3ccc4ccccc4c3c(=O)c2c1 [Compound K]", 500),
]

P: O=c1c2cc(O)ccc2oc2ccc3ccccc3c12 [Compound L]
Q: O=c1c2ccccc2oc2ccc3ccccc3c12 [Compound C]
Could you check which of P and Q has a smaller value for EC50 at 24 h? Pick one and reply with its label.
P

---

# Test system: human sebocyte cells
# Test: MTT cytotoxicity assay in human cultured sebocytes
# Format: cell-based
Form field: Toxicity threshold (one value per entry).

The recorded Toxicity threshold for O=c1c2cc(O)ccc2oc2ccc3ccccc3c12 [Compound L] is >50 µM

For record COc1ccc2c(=O)c3c(ccc4ccccc43)oc2c1 [Compound M] the listed Toxicity threshold is 50 µM

Consider O=c1cc(-c2ccccc2)oc2ccc3ccccc3c12 [Compound D, 3-Phenyl-1H-benzo[f]chromen-1-one, reference compound] . Its measured Toxicity threshold is 30 µM

compound O=c1c2ccccc2oc2ccc3ccccc3c12 [Compound C] , Toxicity threshold observed: >30 µM

// field: Toxicity threshold; key: O=c1c2ccc(O)cc2oc2ccc3ccccc3c12 [Compound N] ; value = >50 µM

---

Listing: Toxicity threshold of selected compounds
# Tested on: HepG2 cells
# Test: MTT cytotoxicity assay in HepG2 cells
# Format: cell-based, human
# Reported conditions: human, 24 h

Some compounds with known Toxicity threshold results, for comparison:
# Line notation, Recorded measurement
records = [
    ("O=c1c2ccc(O)cc2oc2ccc3ccccc3c12", ">30 µM"),
    ("COc1ccc2c(=O)c3c(ccc4ccccc43)oc2c1", ">30 µM"),
    ("O=c1c2ccccc2oc2ccc3ccccc3c12", ">30 µM"),
    ("COc1cccc2c(=O)c3c(ccc4ccccc43)oc12", ">100 µM"),
    ("COc1ccc2oc3ccc4ccccc4c3c(=O)c2c1", ">100 µM"),
    ("O=c1c2cc(O)ccc2oc2ccc3ccccc3c12", ">100 µM"),
]

Now look at this entry.
Reported Toxicity threshold of O=c1c2cccc(O)c2oc2ccc3ccccc3c12 : >100 µM

---

# Test system: CYP1A1
# Test: EROD assay in human cultured sebocytes
# Type: cell-based
# Reported conditions: cultured sebocytes, probe 7-ethoxyresorufin (8 μM)
Assay endpoint: EC50 at 24 h (nM)

The examples below pair each entry with its known result.
# Line notation, Tested target, EC50 at 24 h [nM]
rows = [
    ("COc1ccc2oc3ccc4ccccc4c3c(=O)c2c1", "CYP1A1", 500),
    ("O=c1c2ccccc2oc2ccc3ccccc3c12", "CYP1A1", 200),
]

1: O=c1c2cccc(O)c2oc2ccc3ccccc3c12
2: O=c1c2cc(O)ccc2oc2ccc3ccccc3c12
Select one: 1 or 2 . Criterion: greater recorded EC50 at 24 h. Give the chosen item's label as your response.
2
(2: 500 nM, 1: 200 nM)
